- TESTED TARGET: human TLR7 (Homo sapiens, UniProt Q9NYK1)
- Sequence (Q9NYK1 27-1049): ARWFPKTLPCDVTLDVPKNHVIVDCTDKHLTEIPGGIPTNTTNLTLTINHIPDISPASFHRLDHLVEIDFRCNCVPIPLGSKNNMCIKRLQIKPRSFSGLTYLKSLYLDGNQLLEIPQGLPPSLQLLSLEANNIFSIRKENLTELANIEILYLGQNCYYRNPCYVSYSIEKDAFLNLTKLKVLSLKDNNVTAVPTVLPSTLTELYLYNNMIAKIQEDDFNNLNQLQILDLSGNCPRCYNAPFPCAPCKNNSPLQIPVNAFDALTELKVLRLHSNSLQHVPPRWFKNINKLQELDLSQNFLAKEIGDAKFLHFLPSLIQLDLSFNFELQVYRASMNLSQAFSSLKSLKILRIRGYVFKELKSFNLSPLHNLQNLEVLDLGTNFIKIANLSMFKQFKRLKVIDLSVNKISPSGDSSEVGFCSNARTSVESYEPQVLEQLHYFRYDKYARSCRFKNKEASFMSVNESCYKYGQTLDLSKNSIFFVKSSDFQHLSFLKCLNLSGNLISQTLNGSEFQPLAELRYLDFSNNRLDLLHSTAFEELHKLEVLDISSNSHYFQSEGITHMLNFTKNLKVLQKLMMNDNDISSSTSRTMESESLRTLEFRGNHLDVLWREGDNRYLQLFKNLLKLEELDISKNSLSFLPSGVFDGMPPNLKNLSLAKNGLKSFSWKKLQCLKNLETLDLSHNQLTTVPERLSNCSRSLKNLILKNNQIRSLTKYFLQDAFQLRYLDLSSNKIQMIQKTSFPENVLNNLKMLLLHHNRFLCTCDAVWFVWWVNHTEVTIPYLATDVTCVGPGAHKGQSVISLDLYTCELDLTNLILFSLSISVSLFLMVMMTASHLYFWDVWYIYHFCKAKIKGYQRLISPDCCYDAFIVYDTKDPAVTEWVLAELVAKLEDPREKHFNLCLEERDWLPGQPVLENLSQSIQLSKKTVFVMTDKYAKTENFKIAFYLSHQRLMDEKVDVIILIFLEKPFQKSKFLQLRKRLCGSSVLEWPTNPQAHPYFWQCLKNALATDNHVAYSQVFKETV
- PROTOCOL DETAILS: HEK293-Blue-hTLR-7 cells assay (SEAP reporter)
- Assay type: cell-based
- RUN CONDITIONS: HEK293-Blue-hTLR-7 cells, SEAP reporter, 20 hrs; prodrug; read-out: HEK293-hTLR-7 EC50 (Prodrug)
TEST READOUT: EC50 (µM)

| COMPOUND | TESTED TARGET | TEST READOUT | MEASURED NUMBER |
| --- | --- | --- | --- |
| CCCS(=N)(=O)c1nc(N)c2c(n1)n(Cc1ccccc1)c(=O)n2C(=O)N(C)CC(=O)OCC (stereo not shown) [Example 14] | human TLR7 (Homo sapiens, UniProt Q9NYK1) | EC50 | 2.4 |
| CCCN(C)C(=O)n1c(=O)n(Cc2ccc(C)cc2)c2nc([S@@](=N)(=O)CCC)nc(N)c21 [Example 36-A] | human TLR7 (Homo sapiens, UniProt Q9NYK1) | EC50 | 31.8 |
| CCC[S@](=N)(=O)c1nc(N)c2c(n1)n(Cc1ccc(C)cc1)c(=O)n2C(=O)N1CCCC1 (stereo in doubt) [Example 37-B] | human TLR7 (Homo sapiens, UniProt Q9NYK1) | EC50 | 47.4 |

A = CCCN(C)C(=O)n1c(=O)n(Cc2ccccc2)c2nc(S(=N)(=O)CCC)nc(N)c21 (single isomer, unassigned) [Example 1-A]
B = CCCS(=N)(=O)c1nc(N)c2c(n1)n(Cc1ccccc1)c(=O)n2C(=O)N1CCC(N2CCCCC2)CC1 (stereo not shown) [Example 4]
Sorting by EC50 in descending order, would A or B appear first? When you have decided, please share the label of that item.
A
(A: 42.5 µM, B: 23 µM)
